target: T1, recombinant human IL-6 (human, UniProt P05231 30-212, labeled with radioactive iodine); test: radioiodinated IL-6 on peptide array; experiment D11-D57
T1 construct: Labeled probe in solution, added to wells that carry the synthetic peptides; also called IL-6 ligand; Interleukin-6
true means recorded Counts/minute bound is 20000 counts/minute or above; false means it is below 20000 counts/minute.

Solved entries:
{"columns": ["binder", "class"],
 "data": [
  ["GGSLAFGT [Peptide D24]", "false"],
  ["IVLRFKKT [Peptide D40]", "false"],
  ["GGSLAFGTL [Peptide D23]", "false"],
  ["GGSLAFATLLCIAIVLRFKKT (alanine-scan variant of the domain IV 21-mer) [Peptide D57]", "true"],
  ["GGSLAFGTLLCAAIVLRFKKT (alanine-scan variant of the domain IV 21-mer) [Peptide D52]", "true"]
]}

[Q] Is Counts/minute bound at least 20000 counts/minute? Consider GTLLCIAIVLRFKKT [Peptide D33]
[A] false

[Q] Is Counts/minute bound at least 20000 counts/minute? Consider LCIAIVLRFKKT [Peptide D36]
[A] false

[Q] Is Counts/minute bound at least 20000 counts/minute? Consider FGTLLCIAIVLRFKKT [Peptide D32]
[A] true

[Q] Is Counts/minute bound at least 20000 counts/minute? Consider GGSLAFGTLLCIAIALRFKKT (alanine-scan variant of the domain IV 21-mer) [Peptide D50]
[A] false

[Q] Is Counts/minute bound at least 20000 counts/minute? Consider GGSLAFGTLLCIAIVL [Peptide D16]
[A] false

These entries and their values trace back to patent US20040092720A1.
